Just for reference, the supplement of paper PMC11208160 is where these values come from.

Assay name: recombinant barcode read abundance after kanamycin selection (control-corrected) (log10(CPM+1)); higher = more efficient recombination; sequences stand for … in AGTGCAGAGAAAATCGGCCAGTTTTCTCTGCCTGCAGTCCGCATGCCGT…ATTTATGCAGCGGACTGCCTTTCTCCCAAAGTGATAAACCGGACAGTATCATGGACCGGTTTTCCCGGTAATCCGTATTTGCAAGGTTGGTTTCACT; site = the 11-nt target
Please mark y if the recorded recombinant barcode read abundance (log10) is equal to or greater than 0.1, and n if it falls below.

{"Macromolecule sequence": "TGTATTCCTTGGGTTCTAACCTGTTGCCTGC [TGTATTCCTAG_LTGcore_CT_RTGcore_GC] (site TGTATTCCTAG) (LTG core: CT, RTG core: GC)", "Assigned category": "y"}
{"Macromolecule sequence": "GGACACCCTTGGGTTCTAACCTGTTGCCTCA [GGACACCCTAG_LTGcore_CT_RTGcore_TG] (site GGACACCCTAG) (LTG core: CT, RTG core: TG)", "Assigned category": "y"}
{"Macromolecule sequence": "AGGCCTCCCTGGGTTCTAACCTGTTGCCTGG [AGGCCTCCTAG_LTGcore_CC_RTGcore_CC] (site AGGCCTCCTAG) (LTG core: CC, RTG core: CC)", "Assigned category": "y"}
{"Macromolecule sequence": "AAACACAACTGGGTTCTAACCTGTTGCCTAG [AAACACACTAG_LTGcore_AC_RTGcore_CT] (site AAACACACTAG) (LTG core: AC, RTG core: CT)", "Assigned category": "n"}

Could you now look at the following sequence, please?
Query: Is reported recombinant barcode read abundance (log10) greater than or equal to 0.1 here: AGGAGGTCGTGGGTTCTAACCTGTTGCCTCG [AGGAGGTCTAG_LTGcore_CG_RTGcore_CG] (site AGGAGGTCTAG) (LTG core: CG, RTG core: CG)
Result: y

* * *

Assay name: recombinant barcode read abundance after kanamycin selection (control-corrected) (log10(CPM+1)); higher = more efficient recombination; sequences stand for … in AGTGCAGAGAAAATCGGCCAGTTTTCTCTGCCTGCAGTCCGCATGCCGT…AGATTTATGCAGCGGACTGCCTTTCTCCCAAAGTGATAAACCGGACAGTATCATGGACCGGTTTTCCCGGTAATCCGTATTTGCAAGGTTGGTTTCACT; site = the 11-nt target
Assign recombinant barcode read abundance (log10) to each entry below.
Numbers only.

In the examples that follow, each entry is paired with its recorded recombinant barcode read abundance (log10).
{"Macromolecule sequence": "GAGGACTCTTGGGTTCTAACCTGTTGCCT (site GAGGACTCTAG)", "Recorded result": 3}
{"Macromolecule sequence": "CCTAACCCTTGGGTTCTAACCTGTTGCGT (site CCTAAGCCTAC)", "Recorded result": 0.0306}
{"Macromolecule sequence": "GCGTCTCCTTGGGTTCTAACCTGTTGCAT (site GCGTCTCCTAT)", "Recorded result": 0.335}
{"Macromolecule sequence": "CTCTCCACTTGGGTTCTAACCTGTTGCCA (site CTCTCGACTTG)", "Recorded result": 0.0411}
{"Macromolecule sequence": "GGGTTTGCTTGGGTTCTAACCTGTTGCCT (site GGGTTTGCTAG)", "Recorded result": 1.14}

I would be grateful if you could provide recombinant barcode read abundance (log10) for each of the following entries.
1. CTGAAGCCTTGGGTTCTAACCTGTTGCCT (site ATGAAGCCTAG)
2. CAAACACCTTGGGTTCTAACCTGTTGCTT (site CAACCACCTAA)
3. CTACTAACTTGGGTTCTAACCTGTTGCGT (site CTACTAACTAG)
4. AGCCTCCCTTGGGTTCTAACCTGTTGCCT (site AGGCTCCCTAG)
5. TCGCTAACTTGGGTTCTAACCTGTTGCCT (site GCGCTAACTAG)

Result:
[0.0394, 0.0879, 0.339, 0.0381, 0.145]

* * *

Assay name: recombinant barcode read abundance after kanamycin selection (control-corrected) (log10(CPM+1)); higher = more efficient recombination; sequences stand for … in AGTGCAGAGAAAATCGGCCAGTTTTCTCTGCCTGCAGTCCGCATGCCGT…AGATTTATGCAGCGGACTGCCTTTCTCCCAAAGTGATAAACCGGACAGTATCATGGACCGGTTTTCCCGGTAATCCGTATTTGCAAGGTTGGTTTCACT; site = the 11-nt target
Assign recombinant barcode read abundance (log10) to each entry below.
Answers are plain numbers.

In the examples that follow, each entry is paired with its recorded recombinant barcode read abundance (log10).
{"Macromolecule sequence": "ACTTGCCCTTGGGTTCTAACCTGTTGCCT (site ACTTGCCCTAG)", "Recorded result": 0.925}
{"Macromolecule sequence": "CAGCGAGCTTGGGTTCTAACCTGTTGCCG (site CACCGAGCTCG)", "Recorded result": 0.117}
{"Macromolecule sequence": "CAGGGTTCTTGGGTTCTAACCTGTTGCCT (site CAGGGTTCTAG)", "Recorded result": 2.18}

I would be grateful if you could provide recombinant barcode read abundance (log10) for each of the following entries.
1. GGTCAACCTTGGGTTCTAACCTGTTGCGG (site TACTCTTCTAG)
2. TTGATATCTTGGGTTCTAACCTGTTGCCT (site TTGACATCTAG)
3. TAACGGCCTTGGGTTCTAACCTGTTGCCT (site TATCGGCCTAG)
4. ACATCTCCTTGGGTTCTAACCTGTTGCCT (site GCATCTCCTAG)
5. TCTAGACCTTGGGTTCTAACCTGTTGCCA (site TCTAGACCTTG)
6. ATATTTCCTTGGGTTCTAACCTGTTGCCT (site AAATTTCCTAG)

Result:
[0.113, 0.264, 0.0776, 0.0778, 0.0618, 0.0146]

Query: Can you share its recombinant barcode read abundance (log10)? I mean this sequence: CGAATGTCTTGGGTTCTAACCTGTTGCGT (site CGACTGCCTAC)
Result: 0.0251

* * *

Assay name: recombinant barcode read abundance after kanamycin selection (control-corrected) (log10(CPM+1)); higher = more efficient recombination; sequences stand for … in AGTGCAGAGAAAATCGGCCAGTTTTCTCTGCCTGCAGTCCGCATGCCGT…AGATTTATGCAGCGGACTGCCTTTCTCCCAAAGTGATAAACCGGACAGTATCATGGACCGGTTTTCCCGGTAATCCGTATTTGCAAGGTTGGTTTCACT; site = the 11-nt target
Please mark MET if the recorded recombinant barcode read abundance (log10) is equal to or greater than 0.3, and NOT MET if it falls below.

Record excerpt, results attached:
{"Macromolecule sequence": "TGGATGGCTTGGGTTCTAACCTGTTGCCT (site GGGATGGCTAG)", "Assigned category": "NOT MET"}
{"Macromolecule sequence": "TTAACTACTTGGGTTCTAACCTGTTGCTC (site TTAACTACTGA)", "Assigned category": "NOT MET"}
{"Macromolecule sequence": "GGGCCTACTTGGGTTCTAACCTGTTGCTA (site GGGCCTACTAA)", "Assigned category": "NOT MET"}
{"Macromolecule sequence": "CATCCTACTTGGGTTCTAACCTGTTGCAT (site CATCCTACTCG)", "Assigned category": "NOT MET"}
{"Macromolecule sequence": "AAGGTCGCTTGGGTTCTAACCTGTTGCCT (site AAGGGCGCTAG)", "Assigned category": "MET"}
{"Macromolecule sequence": "CTATGGACTTGGGTTCTAACCTGTTGCAG (site CTATGGACTGT)", "Assigned category": "MET"}

Query: Is reported recombinant barcode read abundance (log10) greater than or equal to 0.3 here: CGCAATGCTTGGGTTCTAACCTGTTGCCT (site CGAAATGCTAG)
Result: NOT MET

Query: Is reported recombinant barcode read abundance (log10) greater than or equal to 0.3 here: AAGGCCTCTTGGGTTCTAACCTGTTGCTT (site AAGTCCTCTAA)
Result: NOT MET

Query: Is reported recombinant barcode read abundance (log10) greater than or equal to 0.3 here: ACTCACACTTGGGTTCTAACCTGTTGCTT (site ACTCACACTAA)
Result: MET

Query: Is reported recombinant barcode read abundance (log10) greater than or equal to 0.3 here: CTGAGTCCTTGGGTTCTAACCTGTTGCCA (site CTGAGTTCTTG)
Result: MET

* * *

Assay name: recombinant UMI read abundance after kanamycin selection (control-corrected) (log10(CPM+1)); higher = more efficient recombination; extreme values may be limits of the assay; sequences stand for … in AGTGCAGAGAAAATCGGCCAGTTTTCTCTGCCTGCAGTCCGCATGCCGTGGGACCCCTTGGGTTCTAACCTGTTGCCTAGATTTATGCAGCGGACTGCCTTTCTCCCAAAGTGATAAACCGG…AGGTTGGTTTCACT; site = the 11-nt donor
Assign recombinant UMI read abundance (log10) to each entry below.

{"Macromolecule sequence": "GAGTTCACATGGACCGGTTTTCCCGGTAATCCGTATTTGAT (site GAGATCACTAT)", "Recorded result": 0.00366}
{"Macromolecule sequence": "GCAAGAGCATGGACCGGTTTTCCCGGTAATCCGTATTTGGC (site GCAAGAGCTGC)", "Recorded result": 1.82}
{"Macromolecule sequence": "TCGAAGACATGGACCGGTTTTCCCGGTAATCCGTATTTGCA (site TCGAAGACTTG)", "Recorded result": 1.88}

I would be grateful if you could provide recombinant UMI read abundance (log10) for each of the following entries.
1. CGGCATGCATGGACCGGTTTTCCCGGTAATCCGTATTTGTT (site CGGAATCCTAA)
2. ATGTGGGCATGGACCGGTTTTCCCGGTAATCCGTATTTGGC (site ATGTCGGCTGC)
3. CCCGTTTCATGGACCGGTTTTCCCGGTAATCCGTATTTGAG (site CCCGTTTCTCT)
4. TAGAATACATGGACCGGTTTTCCCGGTAATCCGTATTTGGA (site TAGAATACTTG)
5. TAAGACCCATGGACCGGTTTTCCCGGTAATCCGTATTTGTT (site TAAGACCCTAA)
6. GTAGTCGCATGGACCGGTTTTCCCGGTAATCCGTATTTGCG (site ATAGTCGCTCG)

Result:
0.00719
0
0.807
0
0.806
0.405

I would be grateful if you could provide recombinant UMI read abundance (log10) for each of the following entries.
1. GCAGTATCATGGACCGGTTTTCCCGGTAATCCGTATTTGCT (site GCAGTATCTAG)
2. CACGGTCCATGGACCGGTTTTCCCGGTAATCCGTATTTGTT (site CACGGTCCTAA)
3. TGTAGCTCATGGACCGGTTTTCCCGGTAATCCGTATTTGGG (site TGTAGCTCTCC)
4. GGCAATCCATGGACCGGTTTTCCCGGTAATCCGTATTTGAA (site GGTAATCCTTT)
5. CAGGCGACATGGACCGGTTTTCCCGGTAATCCGTATTTGGG (site CAGGCGACTCC)
6. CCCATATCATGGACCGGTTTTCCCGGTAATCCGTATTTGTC (site CCCATCTCTGA)

Result:
[2.7, 1.4, 0.0269, 0.00354, 0.209, 0]

I would be grateful if you could provide recombinant UMI read abundance (log10) for each of the following entries.
1. CTGCCAACATGGACCGGTTTTCCCGGTAATCCGTATTTGAA (site CTGCCAACTTT)
2. ACTAGCACATGGACCGGTTTTCCCGGTAATCCGTATTTGAG (site ACTAGGACTCT)
3. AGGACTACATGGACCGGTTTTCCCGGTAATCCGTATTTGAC (site AAGACTACTGT)

Result:
0.912
0.0266
0.848
